The values you see were collected from paper PMC3949714.

Would you mind telling me the reported Rt of each entry?
assay: RP-HPLC retention time (read by the paper as polarity); type: physicochemical; settings: incubation of BE 1-13; Jupiter C4 column, water/acetonitrile gradient with 0.1% formic acid, MS TIC detection
Where no end group is shown, it is not given here.
Numbers only, in min.

Answered examples (2):
- BE 2-13: des-tyrosine beta-endorphin fragment, residues 2-13 (GGFMTSEKSQTP; Beta-endorphin; UniProt P01189 238-249, looked up, fragment): 17.2
- YGGFMTSEKSQTP [BE 1–13]: 18.4

--- query ---
Record summary for BE 2-11: des-tyrosine beta-endorphin fragment, residues 2-11 (GGFMTSEKSQ; Beta-endorphin; UniProt P01189 238-247, looked up, fragment) : reported Rt = 15.7
